Measured log10(IC50) by item
# measuredTarget: Bifunctional epoxide hydrolase 2 (Homo sapiens)
# Sequence (P34913 whole entry): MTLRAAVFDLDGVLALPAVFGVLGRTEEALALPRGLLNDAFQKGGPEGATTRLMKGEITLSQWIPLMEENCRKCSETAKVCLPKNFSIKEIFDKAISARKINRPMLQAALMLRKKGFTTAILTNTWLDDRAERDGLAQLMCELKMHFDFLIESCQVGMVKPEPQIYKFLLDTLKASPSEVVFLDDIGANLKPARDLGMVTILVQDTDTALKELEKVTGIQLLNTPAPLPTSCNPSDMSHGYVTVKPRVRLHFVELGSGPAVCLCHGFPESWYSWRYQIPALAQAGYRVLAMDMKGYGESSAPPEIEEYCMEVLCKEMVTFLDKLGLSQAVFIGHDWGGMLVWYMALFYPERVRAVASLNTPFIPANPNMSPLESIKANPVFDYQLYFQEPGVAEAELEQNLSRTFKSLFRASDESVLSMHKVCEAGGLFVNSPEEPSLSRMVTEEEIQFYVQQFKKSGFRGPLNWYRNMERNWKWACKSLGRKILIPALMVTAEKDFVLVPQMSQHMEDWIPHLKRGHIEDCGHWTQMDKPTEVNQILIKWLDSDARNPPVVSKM
# experiment: Inhibition of soluble epoxide hydrolase by fluorescence assay
parameter: log10(IC50) (log10 of the value in nM)

{"compound": "O=C(Nc1cccc(OCCCN2CCOCC2)c1)NC1CCCCC1", "recordedNumber": 0.59}
{"compound": "O=C(CCC12CC3CC(CC(C3)C1)C2)C(=O)NCCc1ccc(OCc2ccccc2)cc1", "recordedNumber": 2.84}
{"compound": "O=C(Nc1cccc(OCCCN2CCOCC2)c1)C12CC3CC(CC(C3)C1)C2", "recordedNumber": 1.94}
{"compound": "O=C(CC12CC3CC(CC(C3)C1)C2)C(=O)NCCc1ccc(OCc2ccccc2)cc1", "recordedNumber": 3.19}
{"compound": "O=S(=O)(Nc1cccc(OCCCN2CCOCC2)c1)c1ccc(C(F)(F)F)cc1", "recordedNumber": 4.18}
{"compound": "O=S(=O)(Nc1cccc(OCCCN2CCOCC2)c1)NC12CC3CC(CC(C3)C1)C2", "recordedNumber": 3.56}
{"compound": "O=C(NCCc1ccc(OCc2ccccc2)cc1)C(O)CC12CC3CC(CC(C3)C1)C2 (stereo not given)", "recordedNumber": 2.27}
{"compound": "O=C(Nc1cccc(OCCCN2CCOCC2)c1)NC12CC3CC(CC(C3)C1)C2", "recordedNumber": -0.10}
{"compound": "O=C(Nc1ccc(OC(F)(F)F)cc1)Nc1cccc(OCCCN2CCOCC2)c1", "recordedNumber": 0.91}
{"compound": "O=C(Nc1cccc(OCCCN2CCOCC2)c1)C(O)CCC12CC3CC(CC(C3)C1)C2 (stereo not given)", "recordedNumber": 2.72}
